Target: Muscarinic acetylcholine receptor M3 (Homo sapiens)
Assay: Antagonist activity at recombinant human muscarinic M3 receptor assessed as inhibition of agonist-induced effect at 10 uM by aequorin reporter based assay
Assay type: functional
Entries and their inhibition

// below: answered compounds
CN(CCCNC(=O)c1ccc(Cl)cc1)CCc1ccccc1 ... 40%
CN(CCCNC(=O)c1ccc(Br)cc1)Cc1ccccc1 ... 11%

Input "CN(CCNC(=O)c1ccc(C#N)cc1)Cc1ccccc1" , output reported inhibition.
17%

Input "CCCc1ccc(C(=O)NCCCN(C)Cc2ccccc2)cc1" , output reported inhibition.
41%

Input "CN(CCCNC(=O)c1ccc([N+](=O)[O-])cc1)Cc1ccccc1" , output reported inhibition.
30%

###

Entries and their inhibition
Target: Delta-type opioid receptor (Homo sapiens) (UniProt P41143)
Sequence (P41143 whole entry): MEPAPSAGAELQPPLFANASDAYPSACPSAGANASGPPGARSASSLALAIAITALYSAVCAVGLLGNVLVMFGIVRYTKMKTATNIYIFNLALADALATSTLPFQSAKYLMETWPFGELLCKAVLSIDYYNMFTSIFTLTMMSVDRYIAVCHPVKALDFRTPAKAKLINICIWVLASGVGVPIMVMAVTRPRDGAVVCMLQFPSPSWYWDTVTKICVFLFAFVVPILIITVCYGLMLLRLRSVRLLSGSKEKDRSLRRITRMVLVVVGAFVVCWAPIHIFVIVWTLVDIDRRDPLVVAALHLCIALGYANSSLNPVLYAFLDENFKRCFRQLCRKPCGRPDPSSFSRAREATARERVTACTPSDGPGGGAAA
Experiment: Antagonist activity at human delta-type opioid receptor assessed as inhibition of agonist-induced effect at 10 uM by GTPgamma[35S] binding-based assay
Format: functional
Report as a plain number; the unit % is understood.

CN(CCNC(=O)c1ccc(Cl)cc1)Cc1ccccc1 ... 18
CN(CCCNC(=O)c1ccc([N+](=O)[O-])cc1)Cc1ccccc1 ... 5
COc1ccc(C(=O)NCCCN(C)Cc2ccccc2)cc1 ... -2
CN(CCCNC(=O)c1ccc(Cl)cc1)Cc1ccccc1 ... 9
CN(CCNC(=O)c1ccc([N+](=O)[O-])cc1)Cc1ccccc1 ... 8

Kindly review the next compound as well.
Input "CCCc1ccc(C(=O)NCCCN(C)Cc2ccccc2)cc1" , output reported inhibition.
-5

###

Target: Muscarinic acetylcholine receptor M4 (Homo sapiens)
Sequence (whole entry): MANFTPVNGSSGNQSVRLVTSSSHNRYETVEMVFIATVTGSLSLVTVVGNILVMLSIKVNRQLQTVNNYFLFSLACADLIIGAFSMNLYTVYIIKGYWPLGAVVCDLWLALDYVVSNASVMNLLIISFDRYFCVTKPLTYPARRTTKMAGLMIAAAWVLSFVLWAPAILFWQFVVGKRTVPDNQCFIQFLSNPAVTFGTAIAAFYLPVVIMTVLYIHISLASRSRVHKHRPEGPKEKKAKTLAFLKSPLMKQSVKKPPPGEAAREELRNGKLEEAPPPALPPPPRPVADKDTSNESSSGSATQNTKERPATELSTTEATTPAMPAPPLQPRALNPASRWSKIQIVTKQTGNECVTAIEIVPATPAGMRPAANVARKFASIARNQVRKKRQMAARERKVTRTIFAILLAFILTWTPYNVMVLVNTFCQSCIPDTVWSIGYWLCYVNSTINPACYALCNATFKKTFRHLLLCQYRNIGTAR
Assay: Agonist activity at recombinant human muscarinic M4 receptor at 10 uM by GTPgamma[35S] binding-based assay relative to agonist
Format: functional
measurement name: Activity (%)
Report as a plain number; the unit % is understood.

// below: answered compounds
COc1cccc(C(=O)NCCCN(C)Cc2ccccc2)c1 ... -2
CN(CCCNC(=O)c1ccc(C(F)(F)F)cc1)Cc1ccccc1 ... -4
CN(CCCNC(=O)c1ccc(Cl)cc1)CCc1ccccc1 ... -8
CN(CCCNC(=O)c1ccc([N+](=O)[O-])cc1)Cc1ccccc1 ... -5
COc1ccc(C(=O)NCCCN(C)Cc2ccccc2)cc1 ... -1

Input "CN(CCCNC(=O)c1ccc(Br)cc1)Cc1ccccc1" , output reported Activity.
-10

Input "CCCc1ccc(C(=O)NCCCN(C)Cc2ccccc2)cc1" , output reported Activity.
-10

###

Molecular target: Alpha-2A adrenergic receptor (Homo sapiens) (UniProt P08913)
Sequence (P08913 whole entry): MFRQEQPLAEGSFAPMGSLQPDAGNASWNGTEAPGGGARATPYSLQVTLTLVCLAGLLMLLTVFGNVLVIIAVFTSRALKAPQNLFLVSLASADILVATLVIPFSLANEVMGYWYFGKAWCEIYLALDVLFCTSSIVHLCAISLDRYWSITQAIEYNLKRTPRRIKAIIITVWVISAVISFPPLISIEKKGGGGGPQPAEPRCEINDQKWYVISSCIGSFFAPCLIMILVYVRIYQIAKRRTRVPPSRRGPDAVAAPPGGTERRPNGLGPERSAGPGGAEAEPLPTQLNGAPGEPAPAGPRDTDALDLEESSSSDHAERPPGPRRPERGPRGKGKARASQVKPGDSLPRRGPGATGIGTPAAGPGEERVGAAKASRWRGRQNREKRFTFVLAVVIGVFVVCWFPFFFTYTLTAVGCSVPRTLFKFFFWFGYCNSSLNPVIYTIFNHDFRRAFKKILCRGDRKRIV
Test: Antagonist activity at recombinant human alpha-2a adrenergic receptor assessed as inhibition of agonist-induced effect at 10 uM by GTPgamma[35S] binding-based assay
Type: functional
measurement name: inhibition (%)
Report as a plain number; the unit % is understood.

// below: answered compounds
CN(CCNC(=O)c1ccc(C#N)cc1)Cc1ccccc1 ... 19
CN(CCNC(=O)c1ccc([N+](=O)[O-])cc1)Cc1ccccc1 ... 32

Input "COc1cccc(C(=O)NCCCN(C)Cc2ccccc2)c1" , output reported inhibition.
20

Input "CN(CCCNC(=O)c1ccc(Br)cc1)Cc1ccccc1" , output reported inhibition.
42

Input "CN(CCNC(=O)c1ccc(Cl)cc1)Cc1ccccc1" , output reported inhibition.
45

###

Entries and their inhibition
Molecular target: Alpha-2B adrenergic receptor (Homo sapiens) (UniProt P18089)
Sequence (P18089 whole entry): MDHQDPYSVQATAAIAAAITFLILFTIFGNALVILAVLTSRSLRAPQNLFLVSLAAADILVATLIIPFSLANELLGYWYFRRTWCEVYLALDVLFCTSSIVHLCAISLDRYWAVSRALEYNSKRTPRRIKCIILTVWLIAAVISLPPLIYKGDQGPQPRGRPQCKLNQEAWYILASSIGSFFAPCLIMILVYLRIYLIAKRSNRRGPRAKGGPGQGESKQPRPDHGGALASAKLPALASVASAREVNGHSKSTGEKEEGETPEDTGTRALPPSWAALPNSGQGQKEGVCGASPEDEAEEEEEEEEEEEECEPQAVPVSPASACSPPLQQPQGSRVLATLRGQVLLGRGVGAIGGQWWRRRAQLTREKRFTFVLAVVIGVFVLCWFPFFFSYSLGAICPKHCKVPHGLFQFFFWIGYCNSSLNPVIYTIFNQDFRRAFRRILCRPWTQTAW
Experiment: Antagonist activity at recombinant human alpha-2b adrenergic receptor assessed as inhibition of agonist-induced effect at 10 uM by GTPgamma[35S] binding-based assay
Assay type: functional
Report as a plain number; the unit % is understood.

// below: answered compounds
CN(CCCNC(=O)c1ccc(Br)cc1)Cc1ccccc1 ... 28
CN(CCCNC(=O)c1ccc(C(F)(F)F)cc1)Cc1ccccc1 ... 33
CN(CCCNC(=O)c1ccc([N+](=O)[O-])cc1)Cc1ccccc1 ... 30
CN(CCCNC(=O)c1ccc(Cl)cc1)Cc1ccccc1 ... 45
CN(CCNC(=O)c1ccc([N+](=O)[O-])cc1)Cc1ccccc1 ... 39

Input "CN(CCNC(=O)c1ccc(Cl)cc1)Cc1ccccc1" , output reported inhibition.
39

Input "CN(CCCNC(=O)c1cccc(Br)c1)Cc1ccccc1" , output reported inhibition.
38

###

Molecular target: 5-hydroxytryptamine receptor 1A (Homo sapiens)
Test: Agonist activity at recombinant human 5-HT1A assessed as induction of cAMP levels at 10 uM by HTRF assay relative to agonist
Type: functional
measurement name: Activity (%)
Report as a plain number; the unit % is understood.

// below: answered compounds
CN(CCNC(=O)c1ccc(Cl)cc1)Cc1ccccc1 ... 3
COc1ccc(C(=O)NCCCN(C)Cc2ccccc2)cc1 ... -2
CN(CCCNC(=O)c1ccc([N+](=O)[O-])cc1)Cc1ccccc1 ... -1

Report its Activity with 5-hydroxytryptamine receptor 1A (Homo sapiens) as the test system: "CN(CCNC(=O)c1ccc([N+](=O)[O-])cc1)Cc1ccccc1"
4

Report its Activity with 5-hydroxytryptamine receptor 1A (Homo sapiens) as the test system: "CN(CCCNC(=O)c1ccc(C(F)(F)F)cc1)Cc1ccccc1"
-5

Report its Activity with 5-hydroxytryptamine receptor 1A (Homo sapiens) as the test system: "CN(CCCNC(=O)c1ccc(Cl)cc1)Cc1ccccc1"
3

###

Entries and their Activity
Target: Mu-type opioid receptor (Homo sapiens)
Test: Agonist activity at recombinant human mu-type opioid receptor at 10 uM by GTPgamma[35S] binding-based assay relative to agonist
Format: functional
Report as a plain number; the unit % is understood.

// below: answered molecules
CN(CCCNC(=O)c1cccc(Br)c1)Cc1ccccc1 ... 15
COc1cccc(C(=O)NCCCN(C)Cc2ccccc2)c1 ... 16
CN(CCNC(=O)c1ccc(Cl)cc1)Cc1ccccc1 ... 62

Kindly review the next molecule as well.
Input "CN(CCCNC(=O)c1ccc(Cl)cc1)Cc1ccccc1" , output reported Activity.
26

###

Target: Somatostatin receptor type 4 (Homo sapiens)
Test: Agonist activity at recombinant human somatostatin receptor 4 at 10 uM by GTPgamma[35S] binding-based assay relative to agonist
Format: functional
Entries and their Activity
Report as a plain number; the unit % is understood.

// below: answered compounds
CN(CCCNC(=O)c1ccc(C(F)(F)F)cc1)Cc1ccccc1 ... -5
CN(CCNC(=O)c1ccc(C#N)cc1)Cc1ccccc1 ... -1
CCCc1ccc(C(=O)NCCCN(C)Cc2ccccc2)cc1 ... -1
CN(CCNC(=O)c1ccc(Cl)cc1)Cc1ccccc1 ... 1
CN(CCNC(=O)c1ccc([N+](=O)[O-])cc1)Cc1ccccc1 ... -1
CN(CCCNC(=O)c1ccc(Cl)cc1)Cc1ccccc1 ... -6
CN(CCCNC(=O)c1ccc(Br)cc1)Cc1ccccc1 ... -4
CN(CCCNC(=O)c1ccc(Cl)cc1)CCc1ccccc1 ... 15
COc1ccc(C(=O)NCCCN(C)Cc2ccccc2)cc1 ... -3
CN(CCCNC(=O)c1ccc([N+](=O)[O-])cc1)Cc1ccccc1 ... -2

Kindly review the next compound as well.
Report its Activity with Somatostatin receptor type 4 (Homo sapiens) as the test system: "COc1cccc(C(=O)NCCCN(C)Cc2ccccc2)c1"
-4

###

Target: 5-hydroxytryptamine receptor 2B (Homo sapiens)
Experiment: Agonist activity at recombinant human 5-HT2B at 10 uM by aequorin reporter based assay relative to agonist
Format: functional
Entries and their Activity
Report as a plain number; the unit % is understood.

CN(CCCNC(=O)c1ccc(C(F)(F)F)cc1)Cc1ccccc1 ... -2

Input "CN(CCNC(=O)c1ccc([N+](=O)[O-])cc1)Cc1ccccc1" , output reported Activity.
-1

Input "COc1ccc(C(=O)NCCCN(C)Cc2ccccc2)cc1" , output reported Activity.
2

Input "CN(CCCNC(=O)c1ccc(Br)cc1)Cc1ccccc1" , output reported Activity.
2

Input "COc1cccc(C(=O)NCCCN(C)Cc2ccccc2)c1" , output reported Activity.
-2

Input "CN(CCCNC(=O)c1ccc([N+](=O)[O-])cc1)Cc1ccccc1" , output reported Activity.
-2
